molecular target: T1, cyno FcRn/b2M (cyno, UniProt Q8SPV9 24-297; Q8SPW0 21-119, biotinylated); test: SPR pH 6.0;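 further: surface plasmon resonance kinetics at 25 °C, diluted periplasmic extracts injected over immobilized ligand surfaces, 120 s association then 600–3600 s dissociation, running buffer containing 150 mM NaCl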
T1 construct: bought recombinant biotinylated protein (Immunitrack ITF05 or ACRO FCM-C82W5); also called cFcRn; cFcRn/cb2M
T1 sequence (Q8SPV9 24-297 limits assumed, chain 1 of 2): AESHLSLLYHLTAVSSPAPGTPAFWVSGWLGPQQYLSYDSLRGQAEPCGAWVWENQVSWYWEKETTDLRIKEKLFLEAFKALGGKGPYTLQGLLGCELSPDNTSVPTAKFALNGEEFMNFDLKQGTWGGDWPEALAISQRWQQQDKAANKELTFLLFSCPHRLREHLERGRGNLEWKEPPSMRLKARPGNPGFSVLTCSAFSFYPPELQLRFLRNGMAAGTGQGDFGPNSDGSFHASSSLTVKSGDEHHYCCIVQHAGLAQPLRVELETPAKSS
T1 sequence (Q8SPW0 21-119 limits assumed, chain 2 of 2): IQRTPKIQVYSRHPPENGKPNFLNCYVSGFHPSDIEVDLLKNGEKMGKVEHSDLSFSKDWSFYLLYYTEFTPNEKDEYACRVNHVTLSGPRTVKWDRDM
reported property: koff (s⁻¹)
Enter your answer as a number in s⁻¹; do not include the unit.

Known results for binders:
{"binder": "T0263018B11 W100cY (VHH, name in Kabat numbering, FLAG3-His6 tagged) VHH: EVQLVESGGGVVQPGGSLRLSCAASGFTFSSYAMYWVRQAPGKGLEWVSAISSGGGSTDYADSVKGRFTISRDNSKNTLYLQMNSLRPEDTALYYCAADTLYTSLTYYSYWGQGTLVTVSS", "koff [s⁻¹]": 0.0015}
{"binder": "T0263018B11 A93V (VHH, name in Kabat numbering, FLAG3-His6 tagged) VHH: EVQLVESGGGVVQPGGSLRLSCAASGFTFSSYAMYWVRQAPGKGLEWVSAISSGGGSTDYADSVKGRFTISRDNSKNTLYLQMNSLRPEDTALYYCVADTLYTSLTWYSYWGQGTLVTVSS", "koff [s⁻¹]": 0.0021}
{"binder": "T0263018B11 G26L (VHH, name in Kabat numbering, FLAG3-His6 tagged) VHH: EVQLVESGGGVVQPGGSLRLSCAASLFTFSSYAMYWVRQAPGKGLEWVSAISSGGGSTDYADSVKGRFTISRDNSKNTLYLQMNSLRPEDTALYYCAADTLYTSLTWYSYWGQGTLVTVSS", "koff [s⁻¹]": 0.00087}

Prompt line: Please report koff for the following binder: T0263018B11 Y32V (VHH, name in Kabat numbering, FLAG3-His6 tagged) VHH: EVQLVESGGGVVQPGGSLRLSCAASGFTFSSVAMYWVRQAPGKGLEWVSAISSGGGSTDYADSVKGRFTISRDNSKNTLYLQMNSLRPEDTALYYCAADTLYTSLTWYSYWGQGTLVTVSS
Response line: 0.0022

The origin of these recorded values is patent US20240132624A1.
